Biological target: human β3 adrenergic receptor (Homo sapiens)
Construct: Full length β3 AR clones (402 amino acids) containing the last 6 amino acids of hβ3— AR are prepared
Sequence (P13945 whole entry): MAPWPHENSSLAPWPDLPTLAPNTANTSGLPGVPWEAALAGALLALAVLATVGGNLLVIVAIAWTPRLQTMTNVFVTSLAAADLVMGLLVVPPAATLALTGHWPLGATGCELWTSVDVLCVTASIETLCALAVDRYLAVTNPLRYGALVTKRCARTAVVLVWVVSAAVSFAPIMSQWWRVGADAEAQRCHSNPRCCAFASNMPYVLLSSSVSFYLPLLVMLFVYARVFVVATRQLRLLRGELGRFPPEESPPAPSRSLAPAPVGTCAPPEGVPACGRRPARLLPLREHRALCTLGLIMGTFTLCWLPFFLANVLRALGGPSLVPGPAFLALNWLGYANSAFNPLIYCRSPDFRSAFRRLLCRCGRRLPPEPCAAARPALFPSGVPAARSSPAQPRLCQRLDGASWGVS
Experiment: cAMP accumulation (SPA) in CHO cells transfected with human β3 adrenergic receptor
Details: CHO cells expressing human β3-AR; cAMP; 30 min incubation; 10^−9 M to 10^−5 M; read-out: beta-3 EC50
measured_metric: EC50 (nM)

Reference set (4 entries):
{"molecule": "CC#CCC(CC#CC)(C(=O)O)S(=O)(=O)c1ccc(N2CCC(NC[C@H](O)c3ccc(O)c(NS(C)(=O)=O)c3)CC2)cc1 [Example 48]", "study_target": "human β3 adrenergic receptor (Homo sapiens)", "EC50, nM": 590}
{"molecule": "CS(=O)(=O)Nc1cc([C@@H](O)CNC2CCN(c3ccc(S(=O)(=O)N(CC(=O)O)Cc4cc(F)ccc4F)cc3)CC2)ccc1O [Example 63]", "study_target": "human β3 adrenergic receptor (Homo sapiens)", "EC50, nM": 5}
{"molecule": "CCCCNC(=O)NS(=O)(=O)c1ccc(N2CCC(NC[C@H](O)c3ccc(O)c(NS(C)(=O)=O)c3)CC2)cc1 [Example 62]", "study_target": "human β3 adrenergic receptor (Homo sapiens)", "EC50, nM": 9}
{"molecule": "CS(=O)(=O)Nc1cc([C@@H](O)CNC2CCN(c3ccc(S(=O)(=O)NCC(=O)O)cc3)CC2)ccc1O [Example 53]", "study_target": "human β3 adrenergic receptor (Homo sapiens)", "EC50, nM": 34}

P: CCOC(=O)CN1CCN(S(=O)(=O)c2ccc(N3CCC(NC[C@H](O)c4ccc(O)c(NS(C)(=O)=O)c4)CC3)cc2)CC1 [Example 64]
Q: CS(=O)(=O)Nc1cc(C(O)CNC2CCN(c3ccc(S(=O)(=O)N4CCCC4C(=O)O)cc3)CC2)ccc1O (stereo not shown) [Example 18]
Ask: Param pair: P , Q . Output: the one whose EC50 is numerically greater. Your answer should be the label of the entry you select.
Reply: Q

A: CCOC(=O)[C@H](CC(C)C)NS(=O)(=O)c1ccc(N2CCC(NC[C@H](O)c3ccc(O)c(NS(C)(=O)=O)c3)CC2)cc1 [Example 37]
B: O=C1CN(S(=O)(=O)c2ccc(N3CCC(NC[C@H](O)COc4cccc5[nH]c(=O)[nH]c45)CC3)cc2)C(=O)N1 [Example 49]
C: CC(C)(C)OC(=O)CN(Cc1cc(F)ccc1F)S(=O)(=O)c1ccc(N2CCC(NC[C@H](O)c3ccc(O)c(NS(C)(=O)=O)c3)CC2)cc1 [Example 67]
D: CCOC(=O)CN(CC1CC1)S(=O)(=O)c1ccc(N2CCC(NC[C@H](O)c3ccc(O)c(NS(C)(=O)=O)c3)CC2)cc1 [Example 28]
Ask: Arrange the 4 molecules from largest to smallest EC50. Please list each label once, in the requested order.
Reply: A, B, C, D
(A: 16 nM, B: 9 nM, C: 5 nM, D: 2 nM)

I: CCCCN(CC(=O)OCC)S(=O)(=O)c1ccc(N2CCC(NC[C@H](O)c3ccc(O)c(NS(C)(=O)=O)c3)CC2)cc1 [Example 23]
II: CCOC(=O)[C@@H]1CCCN1S(=O)(=O)c1ccc(N2CCC(NC[C@H](O)c3ccc(O)c(NS(C)(=O)=O)c3)CC2)cc1 [Example 36]
Ask: Param pair: I , II . Output: the one whose EC50 is numerically greater. Your answer should be the label of the entry you select.
Reply: I
(I: 16 nM, II: 9 nM)

Data origin, for the record: patent US6444685B1
